Field: Ki. Provide a value for each of the compounds that follow.
Biological target: Cannabinoid receptor 2 (Homo sapiens, UniProt P34972)
Sequence (P34972 whole entry): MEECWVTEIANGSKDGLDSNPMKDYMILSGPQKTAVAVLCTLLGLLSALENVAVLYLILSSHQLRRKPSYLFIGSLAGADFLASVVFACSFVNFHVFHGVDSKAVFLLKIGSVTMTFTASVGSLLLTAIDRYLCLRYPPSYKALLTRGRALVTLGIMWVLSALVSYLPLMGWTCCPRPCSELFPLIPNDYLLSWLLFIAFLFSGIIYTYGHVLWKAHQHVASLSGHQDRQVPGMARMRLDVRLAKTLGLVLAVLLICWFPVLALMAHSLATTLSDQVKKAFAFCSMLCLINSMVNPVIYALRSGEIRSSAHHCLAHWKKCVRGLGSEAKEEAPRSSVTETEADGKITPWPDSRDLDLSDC
Test: Displacement of [3H]CP-55940 from human recombinant CB2 receptor expressed in HEK293 cell membrane
Your answer is read as nM, so omit the unit and give the number.

Notebook: CCCCC/C=C\C/C=C\C/C=C\C/C=C\CCCC(=O)N[C@H]1C[C@H]1O , Ki read as 190

Notebook: CCCCC/C=C\C/C=C\C/C=C\C/C=C\CCCC(=O)N[C@@H]1C[C@@H]1O , Ki read as 200

Notebook: CCCCCCCC/C=C\CCCCCCCC(=O)N[C@@H]1C[C@@H]1O (racemic) , Ki read as 340

Notebook: CCCCCCCC/C=C\CCCCCCCC(=O)N[C@@H]1C[C@H]1O (racemic) , Ki read as 380

Notebook: CCCCCCCC/C=C\CCCCCCCC(=O)N[C@@H]1C[C@@H]1O , Ki read as 2040

Notebook: CCCCC/C=C\C/C=C\C/C=C\C/C=C\CCCC(=O)N[C@@H]1C[C@@H]1O (racemic) , Ki read as 150

Notebook: CCCCCCCC/C=C\CCCCCCCC(=O)N[C@@H]1C[C@H]1O , Ki read as 4410

Notebook: CCCCC/C=C\C/C=C\C/C=C\C/C=C\CCCC(=O)N[C@H]1C[C@@H]1O , Ki read as 290

Notebook: CCCCC/C=C\C/C=C\C/C=C\C/C=C\CCCC(=O)N[C@@H]1C[C@H]1O (racemic) , Ki read as 240

Notebook: CCCCC/C=C\C/C=C\C/C=C\C/C=C\CCCC(=O)N[C@@H]1C[C@H]1O , Ki read as 190

These entries and their values trace back to ChEMBL document CHEMBL1138475.
